Origin of measurements: patent US11807625B2

test: PK of compound of Formula (Ia) after single subcutaneous dose of solution formulations in beagle dogs; assay type: in vivo; details: male, beagle, dog, plasma, sc, 12 mg/kg, beagle dogs, SC 12 mg/kg, 500 mg/mL solution X (5.00% ethanol, 1.91% poloxamer 188), 4032 h, Mean n = 3
METRIC: concentration at 4032 h (nM)

[[record]]
mol_smiles = "CC(C)(C#Cc1ccc(-c2ccc(Cl)c3c(NS(C)(=O)=O)nn(CC(F)(F)F)c23)c([C@H](Cc2cc(F)cc(F)c2)NC(=O)Cn2nc(C(F)(F)F)c3c2C(F)(F)[C@@H]2C[C@H]32)n1)S(C)(=O)=O"
metric = "concentration at 4032 h"
measurement_unit = "nM"
observed = 8.3

